Data credit: the supplement of paper PMC7877785

Reported self-splicing fitness (ln) by item:
ASSAY: self-splicing fitness, log relative to wild type (ln ratio); higher = more splicing; Tetrahymena group I intron in knt gene, E. coli kanamycin selection, DiMSum; sequences stand for … in CUCUCU…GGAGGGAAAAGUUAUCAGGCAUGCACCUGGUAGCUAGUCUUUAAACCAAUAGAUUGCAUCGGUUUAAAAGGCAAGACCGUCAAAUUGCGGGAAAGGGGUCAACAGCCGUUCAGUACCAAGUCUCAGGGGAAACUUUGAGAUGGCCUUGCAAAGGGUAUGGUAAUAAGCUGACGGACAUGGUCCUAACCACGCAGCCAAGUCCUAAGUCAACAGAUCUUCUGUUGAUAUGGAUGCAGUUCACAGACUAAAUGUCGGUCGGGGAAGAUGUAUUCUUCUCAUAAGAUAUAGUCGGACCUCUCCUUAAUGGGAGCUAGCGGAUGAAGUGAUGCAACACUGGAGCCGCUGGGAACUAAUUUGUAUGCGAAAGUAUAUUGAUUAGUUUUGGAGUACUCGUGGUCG;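 note: selection with 25 µg/mL kanamycin versus none on LB agar overnight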
EXPERIMENTAL CONTEXT: 30 °C
Form: value (number only, do not type unit).

Please review the entries below; each comes with its answer.
Report measured self-splicing fitness (ln); entry is CCUUAGCAAUAUUACGGAGC
-3.54

Report measured self-splicing fitness (ln); entry is CGUGAGCAAUAUUACGUGCU
-3.78

Report measured self-splicing fitness (ln); entry is ACGGAGCAAUAUUACGUCAA
-2.71

---
Report measured self-splicing fitness (ln); entry is UCUAAGCAAUAUUACGGAAA
-2.93

Report measured self-splicing fitness (ln); entry is GCAAAGCAAUAUUACGUACU
-0.928

Report measured self-splicing fitness (ln); entry is UCGCAGCAAUAUUACGACAU
-3.6

Report measured self-splicing fitness (ln); entry is CAAGAGCAAUAUUACGUUUU
-3.35

Report measured self-splicing fitness (ln); entry is ACACAGCAAUAUUACGACGA
-0.721

Report measured self-splicing fitness (ln); entry is GCCGAGCAAUAUUACGGAGG
-3.45

Report measured self-splicing fitness (ln); entry is AAUAAGCAAUAUUACGUAAA
-1.89

Report measured self-splicing fitness (ln); entry is AUAUAGCAAUAUUACGGUGC
-2.77

Report measured self-splicing fitness (ln); entry is CAACAGCAAUAUUACGGAUG
-2.53

Report measured self-splicing fitness (ln); entry is AUGUAGCAAUAUUACGUAGC
-2.56

Report measured self-splicing fitness (ln); entry is CGCAAGCAAUAUUACGUGGC
-3.9

Report measured self-splicing fitness (ln); entry is GAGUAGCAAUAUUACGGCUG
-1.21

Report measured self-splicing fitness (ln); entry is ACGCAGCAAUAUUACGCACG
-1.8

Report measured self-splicing fitness (ln); entry is AGAGAGCAAUAUUACGCUAG
-2.84

Report measured self-splicing fitness (ln); entry is CGGUAGCAAUAUUACGAUUU
-2.17

---

ASSAY: self-splicing fitness, log relative to wild type (ln ratio); higher = more splicing; Tetrahymena group I intron in knt gene, E. coli kanamycin selection, DiMSum; sequences stand for … in CUCUCU…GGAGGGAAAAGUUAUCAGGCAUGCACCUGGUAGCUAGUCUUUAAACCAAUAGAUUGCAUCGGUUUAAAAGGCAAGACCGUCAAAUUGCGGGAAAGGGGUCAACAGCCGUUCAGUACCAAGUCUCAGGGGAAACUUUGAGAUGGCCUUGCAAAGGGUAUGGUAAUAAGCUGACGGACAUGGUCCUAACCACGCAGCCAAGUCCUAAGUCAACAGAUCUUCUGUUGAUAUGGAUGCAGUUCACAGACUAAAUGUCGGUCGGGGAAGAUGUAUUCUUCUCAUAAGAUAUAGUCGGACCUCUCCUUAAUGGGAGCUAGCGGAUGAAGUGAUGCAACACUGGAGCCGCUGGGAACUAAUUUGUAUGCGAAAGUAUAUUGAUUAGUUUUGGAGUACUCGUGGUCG
EXPERIMENTAL CONTEXT: 30 °C
Reported self-splicing fitness (ln) by item:

Report measured self-splicing fitness (ln); entry is AUUCAGCAAUAUUACGGCGU
0.256

Report measured self-splicing fitness (ln); entry is UGUAAGCAAUAUUACGAACU
-0.349

Report measured self-splicing fitness (ln); entry is UACGAGCAAUAUUACGCAAU
-3.04

Report measured self-splicing fitness (ln); entry is AGUCAGCAAUAUUACGUCCA
-1.25

Report measured self-splicing fitness (ln); entry is AAAGAGCAAUAUUACGUAGG
-3.36

---
Report measured self-splicing fitness (ln); entry is UUUUAGCAAUAUUACGGAGG
-2.86

Report measured self-splicing fitness (ln); entry is GGCGAGCAAUAUUACGCGCA
-0.241
